The reported measurements were obtained from the kinase profiling compilation of Christmann-Franck et al. (2016).

TARGET_OR_TEST_SYSTEM: CDK2 CCNE1 (human) (UniProt P24941+P24864)
Sequence (P24864 whole entry, looked up, other chains not shown): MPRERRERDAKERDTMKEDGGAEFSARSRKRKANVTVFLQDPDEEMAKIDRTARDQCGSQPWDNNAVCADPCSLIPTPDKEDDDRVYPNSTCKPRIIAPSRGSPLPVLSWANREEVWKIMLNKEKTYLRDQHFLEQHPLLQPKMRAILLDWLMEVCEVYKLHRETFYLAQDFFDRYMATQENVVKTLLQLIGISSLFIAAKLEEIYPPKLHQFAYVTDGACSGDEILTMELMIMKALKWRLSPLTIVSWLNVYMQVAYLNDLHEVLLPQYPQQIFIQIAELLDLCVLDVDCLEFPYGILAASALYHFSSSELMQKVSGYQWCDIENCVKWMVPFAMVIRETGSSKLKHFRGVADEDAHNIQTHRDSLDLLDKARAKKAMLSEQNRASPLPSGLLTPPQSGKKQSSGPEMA
PROTOCOL_NOTES: radiometric filter-binding kinase assay, Kinase HotSpot
TEST_PARAMETERS: compound 0.5 µM; ATP 10 µM
Doc: threshold 90% (exclusive). Items with residual activity beneath it return yes; others return no.

Q: Lab note: confirm whether the reported residual activity for this compound is below 90%, equality not counting. compound: "COc1cc(Nc2c(C#N)cnc3cc(OCCCN4CCN(C)CC4)c(OC)cc23)c(Cl)cc1Cl"
Ans: no

Q: Just wondering, is residual activity of "N#C/C(=C\c1ccc(O)c(O)c1)C(=O)NCc1ccccc1" below 90%?
Ans: no

Q: Confirm or reject: residual activity of "CN(C)c1ccc(/C=C2\C(=O)Nc3ccccc32)cc1" lies strictly below 90%
Ans: no

Q: Strictly below 90% in residual activity? "CO[C@@H]1[C@H](N(C)C(=O)c2ccccc2)C[C@H]2O[C@]1(C)n1c3ccccc3c3c4c(c5c6ccccc6n2c5c31)C(=O)NC4"
Ans: yes

Q: Hi there! Is residual activity for "COc1cc2ncnc(Nc3ccc(OCc4ccccc4)cc3)c2cc1OC" below 90%, do you know?
Ans: no

Q: Check if residual activity falls below 90% for "N#Cc1c[nH]c2c[nH]/c(=N\Cc3cccnc3)cc2/c1=N\c1ccc(F)c(Cl)c1" .
Ans: no

Q: hey, is residual activity for "O=C1c2ccccc2-c2n[nH]c3cccc1c23" lower than 90% or not?
Ans: yes

Q: Consider "NC(=O)c1cccc(-c2cc(Nc3ccc(OC(F)(F)F)cc3)ncn2)c1" . Does its residual activity lie strictly below 90%?
Ans: yes

Q: Does the reported residual activity of "CC(C)(C)c1cc(C=C(C#N)C#N)cc(Br)c1O" stay below 90%?
Ans: yes

Q: I wonder whether "CN(C)CCCn1cc(C2=C(c3c[nH]c4ccccc34)C(=O)NC2=O)c2ccccc21" has residual activity below 90%. Can you tell?
Ans: yes

Q: Regarding "COc1ccc(S(=O)(=O)N(CCO)c2ccccc2CN(C)C/C=C/c2ccc(Cl)cc2)cc1" , kindly confirm whether its residual activity is beneath 90%.
Ans: no

Q: For this compound, is residual activity lower than 90%? "O=C1NC(=O)c2c1c1c3ccccc3[nH]c1n1cncc21"
Ans: yes

Q: Quick check: residual activity of "Cc1cccc(-c2nc(C(C)(C)C)[nH]c2-c2ccc3c(c2)OCO3)n1" under 90%?
Ans: no

Q: hey, is residual activity for "Cn1c2ccccc2c2c3c(c4c5ccccc5n(CCC#N)c4c21)CNC3=O" lower than 90% or not?
Ans: yes

Q: Hi there! Is residual activity for "COc1ccc(C(=O)Nc2sc3c(c2C(N)=O)CCCC3)cc1OC" below 90%, do you know?
Ans: no

Q: Hello, is residual activity of the following compound strictly smaller than 90%? "COc1ccc(Cl)cc1NC(=O)Nc1cc(C)nc2ccccc12"
Ans: no

* * *

TARGET_OR_TEST_SYSTEM: UniProt Q8IWQ3
Sequence (Q8IWQ3 whole entry, looked up): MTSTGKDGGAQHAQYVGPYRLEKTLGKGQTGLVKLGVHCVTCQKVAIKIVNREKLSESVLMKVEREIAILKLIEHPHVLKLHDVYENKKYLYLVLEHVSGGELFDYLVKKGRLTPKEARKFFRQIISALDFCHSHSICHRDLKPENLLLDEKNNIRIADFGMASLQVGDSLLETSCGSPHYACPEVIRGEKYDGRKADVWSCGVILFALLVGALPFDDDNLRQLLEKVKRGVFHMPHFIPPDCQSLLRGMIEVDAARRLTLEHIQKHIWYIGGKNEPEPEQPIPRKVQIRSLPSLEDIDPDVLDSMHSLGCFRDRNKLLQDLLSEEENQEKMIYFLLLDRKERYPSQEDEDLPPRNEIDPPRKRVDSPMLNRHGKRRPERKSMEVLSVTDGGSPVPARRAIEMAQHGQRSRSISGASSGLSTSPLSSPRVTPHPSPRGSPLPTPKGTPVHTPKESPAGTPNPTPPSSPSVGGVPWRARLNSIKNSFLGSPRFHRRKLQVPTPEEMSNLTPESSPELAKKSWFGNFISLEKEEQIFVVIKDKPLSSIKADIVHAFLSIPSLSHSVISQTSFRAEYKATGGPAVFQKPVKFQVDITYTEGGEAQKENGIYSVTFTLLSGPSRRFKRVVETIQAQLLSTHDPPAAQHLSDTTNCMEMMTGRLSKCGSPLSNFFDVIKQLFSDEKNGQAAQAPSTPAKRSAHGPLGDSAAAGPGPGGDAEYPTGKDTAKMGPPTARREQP
PROTOCOL_NOTES: radiometric filter-binding kinase assay, Kinase HotSpot
TEST_PARAMETERS: compound 0.5 µM; ATP 10 µM
Please use True whenever residual activity is not below 90%, and False whenever it is.

Q: Has "COc1ccc2c(c1)/C(=C/c1cnc[nH]1)C(O)=N2" a recorded residual activity greater than or equal to 90%?
Ans: False

Q: Confirm if residual activity reported for the compound "COc1ccc(C(=O)Nc2sc3c(c2C(N)=O)CCCC3)cc1OC" is 90% or above.
Ans: True

Q: Could you tell me if the measured residual activity of "COc1cc2ncnc(Nc3ccc(Oc4ccccc4)cc3)c2cc1OC" reaches 90% or more?
Ans: True

Q: For this compound, is measured residual activity 90% or higher? "O=C(c1cc2cc(O)ccc2[nH]1)c1cc2cc(O)ccc2[nH]1"
Ans: False

Q: residual activity >= 90% for "COc1ccc2c(c1)c(C1=C(c3c[nH]c4ccccc34)C(=O)NC1=O)cn2CCCN(C)C" ?
Ans: False

Q: Item "Cn1c2ccccc2c2c3c(c4c5ccccc5n(CCC#N)c4c21)CNC3=O" with residual activity of 90% or above?
Ans: False

Q: Decide: residual activity of "CO[C@@H]1[C@H](N(C)C(=O)c2ccccc2)C[C@H]2O[C@]1(C)n1c3ccccc3c3c4c(c5c6ccccc6n2c5c31)C(=O)NC4" >= 90%?
Ans: False

Q: Entry "O=C1c2ccccc2-c2nc3nnnn3nc21" : is its residual activity no less than 90%?
Ans: False

Q: Tell me whether residual activity is at least 90% here: "CN(C)S(=O)(=O)c1ccc2c(c1)/C(=C/c1cc3c([nH]1)CCCC3)C(=O)N2"
Ans: False

Q: Assess whether reported residual activity for "c1ccc2c(-c3ccncc3)c[nH]c2c1" sits at 90% or higher.
Ans: True

Q: Check this compound for residual activity at or above 90%: "N#C/C(=C\c1ccc(O)c(O)c1)C(=O)NCc1ccccc1"
Ans: True

Q: Assess whether reported residual activity for "O=C1NC(=O)c2c1c1c3ccccc3[nH]c1n1cncc21" sits at 90% or higher.
Ans: False

Q: Does the reported residual activity for "NC(=O)c1cccc(-c2cc(Nc3ccc(OC(F)(F)F)cc3)ncn2)c1" fall at or above the 90% mark?
Ans: True

Q: Is residual activity for "COc1ccc(Cl)cc1NC(=O)Nc1cc(C)nc2ccccc12" at or above 90%?
Ans: True

Q: Is residual activity at least 90%? Consider "O=C1C(Cl)=C(N2C(=O)CCC2=O)C(=O)c2ccccc21"
Ans: True

Q: Assess whether reported residual activity for "Ic1cccc(CSc2nnc(-c3ccncc3)o2)c1" sits at 90% or higher.
Ans: True

Q: Is the recorded value of residual activity equal to or greater than 90% for this compound? "Cc1cccc(-c2nc(C(C)(C)C)[nH]c2-c2ccc3c(c2)OCO3)n1"
Ans: True

Q: I'd appreciate it if you could say whether "CN(C)CCCn1cc(C2=C(c3c[nH]c4ccccc34)C(=O)NC2=O)c2ccccc21" has residual activity at least equal to 90%.
Ans: False

Q: Does the compound "O=C1Nc2ccc(Br)cc2/C1=C\c1cc2c([nH]1)CCCC2" have recorded residual activity that is 90% or more?
Ans: True

Q: Does "COc1cc(Nc2c(C#N)cnc3cc(OCCCN4CCN(C)CC4)c(OC)cc23)c(Cl)cc1Cl" have a reported residual activity of at least 90%?
Ans: True

Q: Check if residual activity >= 90% (inclusive). Item: "Cc1nc(-c2ccccc2)c(-c2ccncc2)o1"
Ans: True

Q: Given "COc1cc2ncnc(Nc3ccc(OCc4ccccc4)cc3)c2cc1OC" , state whether its residual activity is at least 90%.
Ans: True

Q: # bool: residual activity of "N#Cc1c[nH]c2c[nH]/c(=N\Cc3cccnc3)cc2/c1=N\c1ccc(F)c(Cl)c1" >= 90%
Ans: True

Q: Would you say "CS(=O)(=O)CCNCc1ccc(-c2ccc3ncnc(Nc4ccc(OCc5cccc(F)c5)c(Cl)c4)c3c2)o1" shows residual activity at minimum 90%?
Ans: True

Q: Kindly determine if residual activity recorded for "C[C@@H]1CCN(C(=O)CC#N)C[C@@H]1N(C)c1ncnc2[nH]ccc12" is above or exactly 90%.
Ans: False

Q: Assess whether reported residual activity for "COc1ccc(S(=O)(=O)N(CCO)c2ccccc2CN(C)C/C=C/c2ccc(Cl)cc2)cc1" sits at 90% or higher.
Ans: True

Q: Check the entry "Cc1cncc2cccc(S(=O)(=O)N3CCCN(C(=O)CN)C[C@H]3C)c12" : does residual activity equal or exceed 90%?
Ans: False

Q: Test whether the compound "CC(C)(C)c1cc(C=C(C#N)C#N)cc(Br)c1O" records residual activity of 90% or higher.
Ans: True

Q: In plain terms: is recorded residual activity at least 90% for "CN(C)c1ccc(/C=C2\C(=O)Nc3ccccc32)cc1" ?
Ans: True
